# System: PPARg:RXRa 270nM:90nM, anti-RXR (NR concentration 270 nM, RXRa partner concentration 90 nM)
# protocol-summary: PBM binding z-score (relative to random genomic background probes); higher = stronger binding; sequences stand for … in GC…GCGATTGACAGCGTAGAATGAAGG
PBM binding z-score of 1 or higher: 1. Under 1: -1.

Query: Would you say `AGAATGAGGTTATACGTAAATCAGGGAAGAAAGT` shows PBM binding z-score at minimum 1?
Result: 1

Query: Is reported PBM binding z-score greater than or equal to 1 here: `ACTATTAGTTGACTTAGGGCAACCGATACGACGC`
Result: -1

Query: Is reported PBM binding z-score greater than or equal to 1 here: `AATACAGGGTCATCGAAGGCCAGAGTACGCACAG`
Result: 1

Query: Decide: is the reported value of PBM binding z-score for `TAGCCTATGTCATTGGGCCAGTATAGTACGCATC` equal to or greater than 1?
Result: -1

Query: Is PBM binding z-score for `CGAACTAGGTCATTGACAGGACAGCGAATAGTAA` at or above 1?
Result: 1

Query: Reported PBM binding z-score reaches at least 1 for `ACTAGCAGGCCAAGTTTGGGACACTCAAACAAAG` ?
Result: -1

Query: Record `ATACCAAGGTGATCGTGAGGGCGTTGATACTAAC` ; criterion: PBM binding z-score no lower than 1. Met?
Result: -1

Query: Please tell me: is the sequence `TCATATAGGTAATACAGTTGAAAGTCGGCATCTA` at or over 1 in terms of PBM binding z-score?
Result: 1

Query: Dear colleague, could you confirm whether `CCAGACAGGTGAAAGGTTACTCAGTCTGGTACGC` has PBM binding z-score at or above 1?
Result: 1

Query: Would you say `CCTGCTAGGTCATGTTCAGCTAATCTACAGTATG` shows PBM binding z-score at minimum 1?
Result: 1

Query: Please check the record `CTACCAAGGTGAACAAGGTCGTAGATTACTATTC` and state if its PBM binding z-score is at or above 1.
Result: 1

Query: Textbook exercise: given the entry `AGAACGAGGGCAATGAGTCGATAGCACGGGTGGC` , state whether its PBM binding z-score is greater than or equal to 1.
Result: -1

Query: Check this sequence for PBM binding z-score at or above 1: `ACAGACAGGTGATGAAGGTAACTTAGGCTATCAT`
Result: -1

Query: Decide: is the reported value of PBM binding z-score for `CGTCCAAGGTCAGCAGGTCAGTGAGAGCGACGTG` equal to or greater than 1?
Result: 1

Query: Dear colleague, could you confirm whether `CCAGACAAGTGAAAGGTAACTCAGTCTGGTACGC` has PBM binding z-score at or above 1?
Result: 1

Query: Record `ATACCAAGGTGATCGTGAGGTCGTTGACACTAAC` ; criterion: PBM binding z-score no lower than 1. Met?
Result: -1

Query: Has `CGAACTAGGTCATTGACAGGGCAGTGAATAGTAA` a recorded PBM binding z-score greater than or equal to 1?
Result: 1

Query: Is PBM binding z-score for `GGAACGAGGGCATTCGAGTCGATAGCATGGCGAT` at or above 1?
Result: -1

Query: API: above_or_equal(metric=PBM binding z-score, cutoff=1) for item `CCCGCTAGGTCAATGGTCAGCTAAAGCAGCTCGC`
Result: 1

Query: In plain terms: is recorded PBM binding z-score at least 1 for `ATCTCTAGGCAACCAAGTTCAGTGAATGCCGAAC` ?
Result: -1

Query: Would you say `CCAGACAGGTGAGAAGGTAACTCAACCTCGATTA` shows PBM binding z-score at minimum 1?
Result: -1

Query: Say whether `GATACAGGGTCAAGGCCAGGGTACGCGTATTGAT` shows PBM binding z-score of 1 or more.
Result: 1

Query: Check if PBM binding z-score >= 1 (inclusive). Item: `GGAGCGAGGGCAAAGTTGATAGCATCTGTCGACG`
Result: 1

Query: Threshold query (PBM binding z-score >= 1) on `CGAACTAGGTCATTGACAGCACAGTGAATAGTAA`
Result: 1

Query: Check if PBM binding z-score >= 1 (inclusive). Item: `ACTAGCAGTCCAAGTTTGGGTCACTCAAACAAAG`
Result: -1
